# Test target: specific IgE contained in the sera of 7 patients allergic to birch and apple
# Test protocol: ELISA inhibition, 7 sera pre-incubated with 1.25 µg/ml inhibitor; competitor: wt Mal d 1 adsorbed on wells
Property: mean % inhibition of Mal d 1-IgE binding (7 sera) (%)
A number alone suffices; assume %.

Inquiry: What value of mean % inhibition of Mal d 1-IgE binding (7 sera) has been reported for the following binder? mixture of the single wt allergens (wt Bet v 1 and wt Mal d 1) (protein) chain 1: HHHHHHGVFNYETETTSVIPAARLFKAFILDGDNLFPKVAPQAISSVENIEGNGGPGTIKKISFPEGFPFKYVKDRVDEVDHTNFKYNYSVIEGGPIGDTLEKISNEIKIVATPDGGSILKINNKYHTKGDHEVKAEQIKASKEMGETLLRAVESYLLAHSDAYN chain 2: HHHHHHGVYTFENEFTSEIPPSRLFKAFVLDADNLIPKIAPQAIKQAEILEGDGGPGTIKKITFGEGSQYGYVKHKIDSVDEANYSYAYTLIEGDALTDTIEKVSYETKLVASGSGSIIKSISHYHTKGDVEIKEEHVKAGKEKAHGLFKLIESYLKGHPDAYN
Reply text: 82.8

# credit: patent US20140294878A1
